Form field: IC50 (one value per entry).
Target Or System: GST-XIAP BIR3RING (Homo sapiens, UniProt P98170)
Sequence (P98170 246-497): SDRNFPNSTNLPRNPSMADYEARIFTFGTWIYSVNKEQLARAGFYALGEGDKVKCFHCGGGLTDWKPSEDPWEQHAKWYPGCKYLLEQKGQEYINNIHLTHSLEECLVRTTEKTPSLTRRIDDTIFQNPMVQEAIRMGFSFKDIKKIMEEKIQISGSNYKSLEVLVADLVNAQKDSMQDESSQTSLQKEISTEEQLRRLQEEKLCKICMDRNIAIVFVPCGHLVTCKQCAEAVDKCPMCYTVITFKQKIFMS
Assay Remarks: Fluorescence polarization-based competition assay, XIAP Bir3-RING

Give IC50 (GST-XIAP BIR3RING (Homo sapiens, UniProt P98170)) of the following molecule: CN[C@@H](C)C(=O)N[C@H](C(=O)N1CCC[C@H]1CN(CCc1ccccc1)C(=O)[C@@H](N)Cc1ccccc1)C(C)(C)C
< 10000 nM

###

Target Or System: GST-HIAP2 (cIAP-1) BIR 3 (Homo sapiens, UniProt Q13490)
Sequence (Q13490 251-363): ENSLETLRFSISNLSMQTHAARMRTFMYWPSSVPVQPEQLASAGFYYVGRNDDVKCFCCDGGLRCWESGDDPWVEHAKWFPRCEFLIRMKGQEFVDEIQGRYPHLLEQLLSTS
Assay Remarks: Fluorescence polarization-based competition assay, cIAP-1 Bir3
pIC50: −log10 of the molar value.
Reported Property: pIC50

Please review the following examples before continuing.
Give the measured pIC50 of CN[C@@H](C)C(=O)N[C@H](C(=O)N1CCC[C@H]1CN(CCc1ccccc1)C(=O)CCc1ccccc1)C(C)(C)C [Compound 27] .
> 6.00

Please look up its pIC50: CC[C@H](N)C(=O)N[C@H](C(=O)N1CCC[C@H]1CN(C(=O)C(F)(F)F)[C@H](C)c1ccccc1)C(C)C [Compound 13]
> 5.00

Recorded pIC50 of CC(C)[C@H](NC(=O)[C@H](C)N)C(=O)N1CCC[C@H]1CN(CCCCO)CCc1ccccc1 [Compound 29] , please.
> 6.00

Further cases:
Consider the compound shown here: C#CCOC[C@H](NC(=O)[C@@H](N)CO)C(=O)N1CCC[C@H]1CN(CCc1ccccc1)C(=O)C(F)(F)F [Compound 61] What is its recorded pIC50?
> 6.00

Endpoint output: pIC50 of CC[C@H](N)C(=O)N[C@H](C(=O)N1CCC[C@H]1CN(Cc1ccccc1)C(=O)C(F)(F)F)C(C)C [Compound 12] . Value?
< 5.00

Please give the measured pIC50 for this compound: CNCC(=O)N(CCc1ccccc1)C[C@@H]1CCCN1C(=O)[C@@H](NC(=O)[C@H](C)NC)C(C)(C)C [Compound 34]
> 6.00

Entry CC(=O)N(CCc1ccccc1)C[C@@H]1CCCN1C(=O)[C@@H](NC(=O)[C@H](C)N)C(C)C [Compound 19] : reported pIC50 = ?
> 6.00

###

Quick reference for IC50 among some molecules
Target Or System: GST-XIAP BIR3RING (Homo sapiens, UniProt P98170)
Assay Remarks: Fluorescence polarization-based competition assay, XIAP Bir3-RING

Request the reported IC50 associated with CN[C@@H](C)C(=O)N[C@H](C(=O)N1CCC[C@H]1CN(CCc1ccccc1)C(=O)Cc1ccccc1)C(C)(C)C
< 1 µM

Return reported IC50; argument: CN[C@@H](C)C(=O)N[C@H](C(=O)N1CCC[C@H]1CN(CCc1ccccc1)C(=O)[C@H](N)Cc1ccncc1)C(C)(C)C
< 1 µM

Next up:
Data request, read-out IC50, for CC(=O)N(CCc1ccccc1)C[C@@H]1CCCN1C(=O)[C@@H](NC(=O)[C@H](C)N)C(C)C
< 1 µM
